src = patent EP4620959A1

# ASSAY: Oral pharmacokinetic study in rats
# CONDITION_LABEL: rat, in vivo, 5 mg/kg; male SD rats, oral gavage, dose 5mpk, 1% MC; read-out: AUC0-8
MEASURE_NAME: AUC(0-t) at 8 h
Enter the number, and then the unit.

Task: Given the molecule Cc1nn2cc1Nc1ncc3c(Cl)cc(n3n1)CCCNC(=O)C2(C)C [Example T-25] , write its reported AUC(0-t) at 8 h.
Output: 2210 ng·h/mL

====

# TARGET_SYSTEM: FLT1 (Homo sapiens, UniProt P17948)
# Sequence (P17948 27-1338): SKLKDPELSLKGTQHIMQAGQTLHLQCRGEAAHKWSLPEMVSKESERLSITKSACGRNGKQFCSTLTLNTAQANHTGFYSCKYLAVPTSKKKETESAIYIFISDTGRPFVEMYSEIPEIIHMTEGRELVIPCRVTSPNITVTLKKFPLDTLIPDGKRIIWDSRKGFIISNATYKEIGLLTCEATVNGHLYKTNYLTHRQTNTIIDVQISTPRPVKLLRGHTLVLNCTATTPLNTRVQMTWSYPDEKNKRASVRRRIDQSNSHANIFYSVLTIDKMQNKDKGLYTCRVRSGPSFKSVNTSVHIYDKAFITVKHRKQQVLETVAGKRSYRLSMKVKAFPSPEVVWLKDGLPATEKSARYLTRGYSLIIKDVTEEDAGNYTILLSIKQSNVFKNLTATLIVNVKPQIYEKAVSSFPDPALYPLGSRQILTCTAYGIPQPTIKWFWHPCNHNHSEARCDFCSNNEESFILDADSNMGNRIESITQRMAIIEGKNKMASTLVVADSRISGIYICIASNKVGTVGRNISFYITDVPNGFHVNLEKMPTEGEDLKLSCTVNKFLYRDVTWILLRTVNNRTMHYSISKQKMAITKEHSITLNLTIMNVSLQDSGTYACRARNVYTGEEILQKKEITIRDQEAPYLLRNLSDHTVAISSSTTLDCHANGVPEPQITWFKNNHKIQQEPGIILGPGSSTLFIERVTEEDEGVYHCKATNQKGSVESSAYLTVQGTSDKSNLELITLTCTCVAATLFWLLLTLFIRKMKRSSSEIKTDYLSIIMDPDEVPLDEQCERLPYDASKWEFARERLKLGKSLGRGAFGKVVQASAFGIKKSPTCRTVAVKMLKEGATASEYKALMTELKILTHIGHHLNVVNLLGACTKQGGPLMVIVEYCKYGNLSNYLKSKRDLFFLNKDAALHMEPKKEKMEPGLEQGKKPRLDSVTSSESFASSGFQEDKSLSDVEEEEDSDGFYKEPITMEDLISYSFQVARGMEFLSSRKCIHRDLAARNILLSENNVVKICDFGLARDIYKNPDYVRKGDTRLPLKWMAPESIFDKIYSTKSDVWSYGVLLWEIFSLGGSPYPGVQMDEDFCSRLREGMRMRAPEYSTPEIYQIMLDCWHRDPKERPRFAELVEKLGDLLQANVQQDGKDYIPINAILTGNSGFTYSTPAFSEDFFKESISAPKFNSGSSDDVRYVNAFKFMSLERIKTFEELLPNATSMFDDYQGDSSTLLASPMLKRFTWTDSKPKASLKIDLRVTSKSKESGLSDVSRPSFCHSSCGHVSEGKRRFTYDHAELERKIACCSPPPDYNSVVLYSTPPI
MEASURE_NAME: pIC50
Note on pIC50: it is the negative log10 of concentration, concentration in mol/L.

Task: Param request: pIC50 | system FLT1 (Homo sapiens, UniProt P17948) | item `Cc1nn2cc1Nc1ncc(C(F)(F)F)c(n1)NCCCNC(=O)C2(C)C`
Output: 7.82
